Target: T1, CAPRIN-1 protein expressed on the membrane surface of human cancer cells (human, UniProt Q14444 2-709)
T1 sequence (looked up): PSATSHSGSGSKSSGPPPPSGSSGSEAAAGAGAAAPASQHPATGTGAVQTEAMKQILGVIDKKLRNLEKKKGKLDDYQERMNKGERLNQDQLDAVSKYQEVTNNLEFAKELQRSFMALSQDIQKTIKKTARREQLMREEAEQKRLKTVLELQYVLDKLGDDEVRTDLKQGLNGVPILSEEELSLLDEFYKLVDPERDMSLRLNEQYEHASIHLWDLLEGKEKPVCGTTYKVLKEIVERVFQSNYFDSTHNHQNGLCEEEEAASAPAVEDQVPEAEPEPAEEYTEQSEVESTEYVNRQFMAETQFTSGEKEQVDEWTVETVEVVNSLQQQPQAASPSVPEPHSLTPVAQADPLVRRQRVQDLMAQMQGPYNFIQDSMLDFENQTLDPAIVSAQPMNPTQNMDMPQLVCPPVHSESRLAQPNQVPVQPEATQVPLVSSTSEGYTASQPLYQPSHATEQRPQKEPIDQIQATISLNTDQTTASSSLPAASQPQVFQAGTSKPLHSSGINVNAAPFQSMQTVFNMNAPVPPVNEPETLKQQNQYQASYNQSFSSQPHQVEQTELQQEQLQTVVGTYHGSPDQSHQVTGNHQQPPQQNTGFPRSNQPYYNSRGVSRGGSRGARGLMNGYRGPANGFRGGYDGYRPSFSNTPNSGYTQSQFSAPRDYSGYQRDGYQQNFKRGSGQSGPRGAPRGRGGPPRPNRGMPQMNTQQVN
Experiment: cell-based or functional assay
attribute_measured: ADCC cytotoxic activity (51Cr release) on Hep3B

Data request: Looking for the measured ADCC cytotoxic activity (51Cr release) on Hep3B of humanized antibody #10 (antibody, V domains shown) VH: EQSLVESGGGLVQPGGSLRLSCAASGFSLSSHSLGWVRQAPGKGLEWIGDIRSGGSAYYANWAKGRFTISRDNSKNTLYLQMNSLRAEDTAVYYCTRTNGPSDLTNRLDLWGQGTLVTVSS VL: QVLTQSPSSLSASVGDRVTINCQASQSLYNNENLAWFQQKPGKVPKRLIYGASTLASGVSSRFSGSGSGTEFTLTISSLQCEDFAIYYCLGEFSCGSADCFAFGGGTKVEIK , can you help?
Data returned: ≥ 28%
